// provenance: PubChem BioAssay (NCATS)

protocol-notes: Quantitative High-Throughput drug screen in 47 multiple myeloma cell lines against the NCATS MIPE library collection: VP6_DJ cell viability assay (AID 1919867); also: nearly all actives have a fitted effect of over 40% in size
test-conditions: ATP luminescence, 48 h; series mostly up to 45.8 µM
Inconclusive results are not listed. The source made the active and inactive calls. Calls follow the shape of the dose curve; as a rule, active = well fitted cell-killing curve with a large enough effect; inconclusive = small, poorly fitted or top-dose-only effect, or effect the other way; inactive = no such curve, though single readings can be large or run the other way.
Write down the outcome that applies. Available outcomes: label 1 for active, label 0 for inactive

Lab log entry: Nc1ncnc2c1ncn2[C@@H]1O[C@H](CO)[C@@H](O)[C@@H]1O — outcome as called in the assay?
label 1

Try this compound next: C[C@H]1O[C@@H](n2cc(F)c(=O)[nH]c2=O)[C@H](O)[C@H]1O
label 1

Try this compound next: COc1nc(C)cnc1NS(=O)(=O)c1cccnc1-c1ccc(-c2nnco2)cc1
label 0

Try this compound next: COC1CCC(C(=O)c2ccc3nc4c(cc3c2)CCCO4)CC1 (stereo not given)
label 1

Try this compound next: CCC(=O)OCC(=O)[C@@]1(OC(=O)CC)[C@@H](C)C[C@@H]2[C@H]3CCC4=CC(=O)C=C[C@]4(C)[C@@]3(F)[C@@H](O)C[C@@]21C
label 1

Try this compound next: COc1c(C)c2c(c(O)c1CC=C(C)CCC(=O)O)C(=O)OC2
label 1

Try this compound next: CC1(C)OC2CC3C4CC(F)C5=CC(=O)C=CC5(C)C4C(O)CC3(C)[C@]2(C(=O)CO)O1 (stereo not given in full)
label 1

Try this compound next: NCc1c[nH]c(=S)n1[C@H]1CCc2c(F)cc(F)cc2C1
label 1

Try this compound next: CC(C)C[C@@H](C(=O)N[C@H](C(=O)OC1CCCC1)c1ccccc1)[C@H](O)C(=O)NO
label 1

Try this compound next: CN(C)CCOc1ccc(-c2nc(-c3ccc4c(c3)CCC4=NO)c(-c3ccncc3)[nH]2)cc1
label 1

Try this compound next: CC(C)n1c(C=C[C@H](O)C[C@H](O)CC(=O)O)c(-c2ccc(F)cc2)c2ccccc21
label 1

Try this compound next: CCC(=C(CC)c1ccc(O)cc1)c1ccc(O)cc1
label 1

Try this compound next: N#CC(c1ccnc(NCCc2cccnc2)n1)c1nc2ccccc2s1 (stereo not given)
label 1

Try this compound next: Cc1ccc(NC(=O)c2ccc(CN3CCN(C)CC3)cc2)cc1Nc1nc(-c2cccnc2)cs1
label 1

Try this compound next: O=C1C(CCC(O)c2ccc(F)cc2)C(c2ccc(O)cc2)N1c1ccc(F)cc1 (stereo not given)
label 1

Try this compound next: CC(C)CN(C[C@@H](O)[C@H](Cc1ccccc1)NC(=O)O[C@H]1CO[C@H]2OCC[C@H]21)S(=O)(=O)c1ccc(N)cc1
label 1

Try this compound next: COc1ccc(-c2oc3c(CC=C(C)C)c(O)cc(O)c3c(=O)c2O)cc1
label 1

Try this compound next: CC(=O)N1CCN(c2ccc(OCc3nn(C)c(C)c3-c3cccc4c(CCCOc5cc(C)c(Cl)c(C)c5)c(C(=O)O)n(Cc5cccnc5)c34)cc2)CC1
label 1

Try this compound next: CC[C@@H]([C@H](C)O)n1ncn(-c2ccc(N3CCN(c4ccc(OCC5CO[C@@](Cn6cncn6)(c6ccc(F)cc6F)C5)cc4)CC3)cc2)c1=O (stereo not given in full)
label 1

Try this compound next: CSc1cccc(Nc2ncc3cc(-c4c(Cl)cccc4Cl)c(=O)n(C)c3n2)c1
label 1

Try this compound next: CC(C)Oc1cc(Nc2nc(N[C@@H](C)c3ccc(F)cn3)ncc2Cl)[nH]n1
label 1

Try this compound next: Cn1cc(-c2ccc3nnc(Sc4ccc5ncccc5c4)n3n2)cn1
label 1

Try this compound next: CN(C)S(=O)(=O)c1ccc2c(c1)C(=Cc1cc3c([nH]1)CCCC3)C(=O)N2
label 1

Try this compound next: Cc1cccc(Nc2nc(N[C@@H]3CCCC[C@H]3N)ncc2C(N)=O)c1
label 1

Try this compound next: CC=C(C(=CC)c1ccc(O)cc1)c1ccc(O)cc1
label 1

Try this compound next: COc1ccc2cc1Oc1ccc(cc1)C[C@H]1c3cc(c(OC)cc3CCN1C)Oc1c(OC)c(OC)cc3c1[C@H](C2)N(C)CC3
label 1

Try this compound next: O=C1NC(=O)C(=Cc2ccc(-c3ccc(F)cc3O)o2)S1
label 1

Try this compound next: CC(C)C[C@@H](N)[C@H](O)C(=O)N[C@H](C(=O)N[C@H](C(=O)N[C@@H](CC(=O)O)C(=O)O)C(C)C)C(C)C
label 1

Try this compound next: Cc1ccc(S(=O)(=O)Nc2nc3ccccc3nc2Nc2ccc3nsnc3c2)cc1
label 1

Try this compound next: CCC(c1ccc(O)cc1)C(CC)c1ccc(O)cc1 (stereo not given)
label 0

Try this compound next: Clc1ccc(C2(c3ccc(-c4cn[nH]c4)cc3)CCNCC2)cc1
label 1

Try this compound next: CC(C)CN(C[C@H](O)[C@H](Cc1ccccc1)NC(=O)O[C@H]1CCOC1)S(=O)(=O)c1ccc(N)cc1
label 1

Try this compound next: C[C@@H](NC(=O)c1ncnc(N)c1Cl)c1ncc(C(=O)Nc2cc(C(F)(F)F)c(Cl)cn2)s1
label 1

Try this compound next: Cc1ccccc1C(=O)c1ccc(Nc2ccc(Br)cc2N)cc1Cl
label 1

Try this compound next: C[C@@H]1O[C@@H](O[C@H]2CC[C@@]3(C)[C@H](CC[C@@H]4[C@H]3C[C@@H](O)[C@]3(C)[C@@H](C5=CC(=O)OC5)CC[C@]43O)C2)C[C@H](O)[C@@H]1O[C@H]1C[C@H](O)[C@H](O[C@H]2C[C@H](O)[C@@H](O)[C@@H](C)O2)[C@H](C)O1 (stereo in doubt)
label 1
